Sodium-dependent dopamine transporter (Homo sapiens, UniProt Q01959) AC50 data; note: assay procedure not described here
Sequence (Q01959 whole entry): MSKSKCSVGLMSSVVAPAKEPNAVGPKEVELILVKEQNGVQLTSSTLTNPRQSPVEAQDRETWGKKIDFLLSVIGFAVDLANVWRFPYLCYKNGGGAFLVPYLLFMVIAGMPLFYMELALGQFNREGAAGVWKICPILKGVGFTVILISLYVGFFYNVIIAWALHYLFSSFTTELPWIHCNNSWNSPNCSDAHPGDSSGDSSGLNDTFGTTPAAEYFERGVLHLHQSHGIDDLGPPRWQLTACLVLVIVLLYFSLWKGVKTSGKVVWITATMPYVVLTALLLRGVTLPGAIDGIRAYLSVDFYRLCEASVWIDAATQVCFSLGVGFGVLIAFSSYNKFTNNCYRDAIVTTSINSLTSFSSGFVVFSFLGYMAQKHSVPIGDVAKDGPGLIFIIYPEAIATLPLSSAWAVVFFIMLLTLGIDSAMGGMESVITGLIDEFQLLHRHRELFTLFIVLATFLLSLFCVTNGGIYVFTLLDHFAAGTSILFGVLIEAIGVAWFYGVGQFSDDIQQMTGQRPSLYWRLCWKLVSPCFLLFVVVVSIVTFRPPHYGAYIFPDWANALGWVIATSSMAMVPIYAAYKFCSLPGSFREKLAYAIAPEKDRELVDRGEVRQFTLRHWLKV
reported property: AC50

- CCCCCNC(=N)N/N=C/c1c[nH]c2ccc(OC)cc12: 6.78 µM
- C[C@H](CSC(=O)c1ccccc1)C(=O)N1C[C@@H](Sc2ccccc2)C[C@H]1C(=O)O: > 10 µM
- CC[C@@H]1C(=O)OC[C@@H]1Cc1cncn1C: > 30 µM
- CCCN(CCC)C(=O)C(CCC(=O)O)NC(=O)c1ccccc1 (stereo not drawn) [PROGLUMIDE]: > 30 µM
- CC/C(=C(\c1ccccc1)c1ccc(OCCN(C)C)cc1)c1ccccc1: 12.3 µM
- O=C(O)CCCCCCCC(=O)O: > 10 µM
- CC1(C)NC(=O)N(c2ccc([N+](=O)[O-])c(C(F)(F)F)c2)C1=O [NILUTAMIDE]: > 30 µM
- CNC(C)CCC=C(C)C (stereo not drawn): > 30 µM

====

- test system: Gamma-aminobutyric acid receptor subunit alpha-1 (Rattus norvegicus, UniProt P62813); note: assay procedure not described here
- Sequence (P62813 whole entry): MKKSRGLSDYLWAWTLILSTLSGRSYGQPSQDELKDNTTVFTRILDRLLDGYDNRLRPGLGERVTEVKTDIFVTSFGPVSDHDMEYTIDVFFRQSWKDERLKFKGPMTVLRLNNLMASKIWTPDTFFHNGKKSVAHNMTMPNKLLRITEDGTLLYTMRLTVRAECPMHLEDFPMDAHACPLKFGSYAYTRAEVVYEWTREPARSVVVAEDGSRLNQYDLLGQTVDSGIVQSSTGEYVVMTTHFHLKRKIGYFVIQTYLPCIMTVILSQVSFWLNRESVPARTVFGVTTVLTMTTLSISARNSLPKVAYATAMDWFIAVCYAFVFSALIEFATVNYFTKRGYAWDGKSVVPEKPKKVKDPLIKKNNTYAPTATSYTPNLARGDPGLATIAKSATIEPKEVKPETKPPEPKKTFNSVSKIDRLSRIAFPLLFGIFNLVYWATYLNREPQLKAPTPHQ
Measured AC50 accompanies every entry in the list below.
reported property: AC50

* CCOc1ccccc1OCC1CNCCO1 (centres undefined) | > 10 µM
* Cc1c(C(=O)NN2CCCCC2)nn(-c2ccc(Cl)cc2Cl)c1-c1ccc(Cl)cc1 | > 10 µM
* CCOC(=O)[C@H](CCc1ccccc1)N[C@@H](C)C(=O)N1C(=O)N(C)C[C@H]1C(=O)O | > 30 µM
* COc1ccc(-c2ccc3cc(C(=O)O)ccc3c2)cc1C12CC3CC(CC(C3)C1)C2 | > 30 µM
* CO[C@@H]1[C@@H](O[C@@H]2O[C@H](C)[C@@H](O[C@H]3C[C@@](C)(O)[C@@H](OC(=O)CC(C)C)[C@H](C)O3)[C@H](N(C)C)[C@H]2O)[C@@H](CC=O)C[C@@H](C)[C@@H](O)/C=C/C=C/C[C@@H](C)OC(=O)C[C@H]1OC(C)=O | > 10 µM
* CCCN1C[C@H](CSC)C[C@@H]2c3cccc4[nH]cc(c34)C[C@H]21 [PERGOLIDE] | > 10 µM
* O=C(Cc1ccc(-c2ccccc2)cc1)Nc1ccccn1 [DIFENPIRAMIDE] | > 30 µM
* C=CCN1CCCC1CNC(=O)c1cc(S(N)(=O)=O)cc(OC)c1OC (centres undefined) [VERALIPRIDE] | > 30 µM
* COc1ccc(CCN(C)CCCC(C#N)(c2cc(OC)c(OC)c(OC)c2)C(C)C)cc1OC (centres undefined) | > 30 µM
* C=CCC1(C(C)CC)C(=O)NC(=O)NC1=O (centres undefined) | > 10 µM
* Cc1ccc(-c2cc(C(F)(F)F)nn2-c2ccc(S(N)(=O)=O)cc2)cc1 | > 10 µM
* CCCCCCOc1ccccc1C(N)=O [EXALAMIDE] | > 30 µM
* Cc1cn([C@H]2C[C@H](N=[N+]=[N-])[C@@H](CO)O2)c(=O)[nH]c1=O | > 10 µM
* CN1C(=O)C(O)N=C(c2ccccc2)c2cc(Cl)ccc21 (centres undefined) | > 10 µM

====

- test system: Prostaglandin G/H synthase 1 (Rattus norvegicus)
- Sequence (Q63921 whole entry): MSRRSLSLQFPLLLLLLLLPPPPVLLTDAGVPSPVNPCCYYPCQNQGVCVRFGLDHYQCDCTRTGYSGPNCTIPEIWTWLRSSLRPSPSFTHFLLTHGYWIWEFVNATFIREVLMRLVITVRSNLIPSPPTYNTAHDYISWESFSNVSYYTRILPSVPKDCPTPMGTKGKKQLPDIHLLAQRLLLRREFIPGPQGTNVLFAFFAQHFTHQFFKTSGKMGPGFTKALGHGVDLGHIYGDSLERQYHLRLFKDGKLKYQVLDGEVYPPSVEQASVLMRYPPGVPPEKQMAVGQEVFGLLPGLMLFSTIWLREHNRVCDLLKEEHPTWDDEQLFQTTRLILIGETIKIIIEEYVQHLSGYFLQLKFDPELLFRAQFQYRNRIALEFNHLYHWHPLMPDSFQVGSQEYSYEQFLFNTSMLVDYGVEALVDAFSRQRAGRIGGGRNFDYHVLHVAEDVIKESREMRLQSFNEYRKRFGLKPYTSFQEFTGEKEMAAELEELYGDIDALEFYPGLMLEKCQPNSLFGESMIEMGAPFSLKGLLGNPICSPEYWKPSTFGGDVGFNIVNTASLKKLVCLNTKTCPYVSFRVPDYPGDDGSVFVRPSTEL
- Assay type: functional
reported property: AC50

• CCC(C)n1ncn(-c2ccc(N3CCN(c4ccc(OCC5COC(Cn6cncn6)(c6ccc(Cl)cc6Cl)O5)cc4)CC3)cc2)c1=O (centres undefined) [ITRACONAZOLE] = > 30 µM
• O=C1C(O)=C([C@H]2CC[C@H](c3ccc(Cl)cc3)CC2)C(=O)c2ccccc21 [ATOVAQUONE] = > 30 µM
• O=C(NCCN1CCOCC1)c1ccc(Cl)cc1 [MOCLOBEMIDE] = > 10 µM
• Cn1c(=O)c2c(ncn2CC2OCCO2)n(C)c1=O [DOXOFYLLINE] = > 30 µM
• CNC(C)CCC=C(C)C (centres undefined) [ISOMETHEPTENE] = > 30 µM
• C[C@H](CSC(=O)c1ccccc1)C(=O)N1C[C@@H](Sc2ccccc2)C[C@H]1C(=O)O [ZOFENOPRIL] = > 10 µM
• CC(C[N+](C)(C)C)OC(N)=O (centres undefined) [BETHANECHOL] = > 10 µM
• CN1CCN(CC/C=C2/c3ccccc3Sc3ccc(S(=O)(=O)N(C)C)cc32)CC1 [THIOTHIXENE] = > 30 µM
• CCCCc1ncc(/C=C(\Cc2cccs2)C(=O)O)n1Cc1ccc(C(=O)O)cc1 [EPROSARTAN] = > 30 µM

====

- test system: Prostaglandin G/H synthase 1 (Homo sapiens)
- Sequence (P23219 whole entry): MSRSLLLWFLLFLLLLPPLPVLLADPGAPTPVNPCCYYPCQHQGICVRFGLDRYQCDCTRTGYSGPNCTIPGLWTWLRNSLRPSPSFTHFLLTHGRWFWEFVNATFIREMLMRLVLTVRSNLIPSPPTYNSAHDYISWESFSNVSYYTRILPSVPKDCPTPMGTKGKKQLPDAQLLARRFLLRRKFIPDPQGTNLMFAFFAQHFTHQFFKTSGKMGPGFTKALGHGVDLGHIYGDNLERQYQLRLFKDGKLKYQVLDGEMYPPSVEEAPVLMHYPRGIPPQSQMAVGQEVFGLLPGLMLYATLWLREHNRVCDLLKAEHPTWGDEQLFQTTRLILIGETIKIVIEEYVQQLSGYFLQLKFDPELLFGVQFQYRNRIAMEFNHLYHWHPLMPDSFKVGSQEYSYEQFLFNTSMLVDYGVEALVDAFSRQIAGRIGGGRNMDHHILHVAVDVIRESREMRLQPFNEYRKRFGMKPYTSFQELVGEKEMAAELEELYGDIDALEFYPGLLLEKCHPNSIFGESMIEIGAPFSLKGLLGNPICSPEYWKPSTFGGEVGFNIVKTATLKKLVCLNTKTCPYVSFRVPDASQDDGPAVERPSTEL
- Type: functional
Measured AC50 accompanies every entry in the list below.
reported property: AC50

* CC[C@H]1OC(=O)[C@H](C)[C@@H](O[C@H]2C[C@@](C)(OC)[C@@H](O)[C@H](C)O2)[C@H](C)[C@@H](O[C@@H]2O[C@H](C)C[C@H](N(C)C)[C@H]2O)[C@](C)(O)C[C@@H](C)CN(C)[C@H](C)[C@@H](O)[C@]1(C)O | > 30 µM
* CC(=O)c1ccc2c(c1)N(CCCN(C)C)c1ccccc1S2 | > 30 µM
* CC(C)C[C@H]1C(=O)N2CCC[C@H]2[C@]2(O)O[C@](NC(=O)[C@@H]3C[C@@H]4c5cccc6[nH]cc(c56)C[C@H]4N(C)C3)(C(C)C)C(=O)N12 [DIHYDROERGOCRYPTINE] | 27.4 µM

====

- test system: 5-hydroxytryptamine receptor 1A (Homo sapiens, UniProt P08908); note: assay procedure not described here
- Sequence (P08908 whole entry): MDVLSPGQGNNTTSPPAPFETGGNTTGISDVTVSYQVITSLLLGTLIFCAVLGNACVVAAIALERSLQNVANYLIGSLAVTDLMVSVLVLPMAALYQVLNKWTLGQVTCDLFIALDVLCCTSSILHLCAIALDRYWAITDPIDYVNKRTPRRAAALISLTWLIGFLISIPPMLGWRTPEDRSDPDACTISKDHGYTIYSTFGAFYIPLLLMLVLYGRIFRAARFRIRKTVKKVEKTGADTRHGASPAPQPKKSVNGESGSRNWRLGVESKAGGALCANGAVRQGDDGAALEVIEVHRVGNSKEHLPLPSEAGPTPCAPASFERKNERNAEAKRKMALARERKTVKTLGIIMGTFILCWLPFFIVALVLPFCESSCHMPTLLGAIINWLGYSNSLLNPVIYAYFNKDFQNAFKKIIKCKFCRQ
- Type: functional, cell-based
reported property: AC50

• O=C(O)[C@H](CC(=O)N1C[C@H]2CCCC[C@H]2C1)Cc1ccccc1 [MITIGLINIDE] = > 10 µM
• CN(C)CCC=C1c2ccccc2C=Cc2ccccc21 [CYCLOBENZAPRINE] = > 10 µM
• Cc1ccc(-n2nccn2)c(C(=O)N2CCN(c3nc4cc(Cl)ccc4o3)CC[C@H]2C)c1 [SUVOREXANT] = > 30 µM
• CC(C)Cn1cnc2c(N)nc3ccccc3c21 [IMIQUIMOD] = > 10 µM
• NS(=O)(=O)Cc1noc2ccccc12 [ZONISAMIDE] = > 10 µM
• N[C@@H]1[C@H]2CN(c3nc4c(cc3F)c(=O)c(C(=O)O)cn4-c3ccc(F)cc3F)C[C@@H]12 [TROVAFLOXACIN] = > 30 µM
• O=C(NCCNCC(O)COc1ccc(O)cc1)N1CCOCC1 (configuration not stated) [XAMOTEROL] = > 30 µM
• C#C[C@]1(O)CC[C@H]2[C@@H]3CCC4=Cc5oncc5C[C@]4(C)[C@H]3CC[C@@]21C [DANAZOL] = > 10 µM
• CCC(C(=O)O)c1ccc(N2Cc3ccccc3C2=O)cc1 (configuration not stated) [INDOBUFEN] = > 30 µM
• CC(=O)O[C@H]1C[C@@H]2CC[C@@H]3[C@H](CC[C@@]4(C)[C@H]3C[C@H]([N+]3(C)CCCCC3)[C@@H]4OC(C)=O)[C@@]2(C)C[C@@H]1N1CCCCC1 [VECURONIUM] = > 30 µM
• CCC1(CC)C(=O)NCC(C)C1=O (configuration not stated) [METHYPRYLON] = > 30 µM
• COc1ccccc1OCC(O)CN1CCN(CC(=O)Nc2c(C)cccc2C)CC1 (configuration not stated) [RANOLAZINE] = > 30 µM
• CN1C(=O)C(O)N=C(c2ccccc2Cl)c2cc(Cl)ccc21 (configuration not stated) [LORMETAZEPAM] = > 30 µM
• CCOC(=O)OC(C)OC1=C(C(=O)Nc2ccccn2)N(C)S(=O)(=O)c2ccccc21 (configuration not stated) [AMPIROXICAM] = > 30 µM
• C#C[C@]1(O)CC[C@H]2[C@@H]3CCc4cc(OC5CCCC5)ccc4[C@H]3CC[C@@]21C [QUINESTROL] = > 10 µM
• Cc1ccc(S(=O)(=O)NC(=O)NN2CC3CCCC3C2)cc1 (configuration not stated) [GLICLAZIDE] = > 10 µM
• CCCCCNC(=N)N/N=C/c1c[nH]c2ccc(OC)cc12 [TEGASEROD] = > 30 µM
• COc1ccccc1N1CCN(CC(O)COc2cccc3ccccc23)CC1 (configuration not stated) [NAFTOPIDIL] = > 30 µM
• O=C(O)CCCCCCNC1c2ccccc2CCc2ccccc21 [AMINEPTINE] = > 30 µM
• C[C@](N)(Cc1ccc(O)c(O)c1)C(=O)O [METHYLDOPA] = > 10 µM
• O=C(O[C@H]1C[C@H]2CC[C@@H](C1)[N+]21CCCC1)C(O)(c1ccccc1)c1ccccc1 [TROSPIUM] = > 30 µM
• COc1ccc(C(=O)Nc2ccccc2CCC2CCCCN2C)cc1 (configuration not stated) [ENCAINIDE] = > 10 µM
• CN1CCN(C2=Nc3ccccc3Sc3ccc(Cl)cc32)CC1 [CLOTHIAPINE] = > 30 µM
• COc1ccc2c3c1O[C@H]1C(=O)CC[C@@]4(O)[C@@H](C2)N(C)CC[C@]314 [OXYCODONE] = > 30 µM
• Nc1nc(/C(=C/CC(=O)O)C(=O)N[C@@H]2C(=O)N3C(C(=O)O)=CCS[C@H]23)cs1 [CEFTIBUTEN] = > 30 µM
• C[C@@H](O)[C@H]1C(=O)N2C(C(=O)O)=C(S[C@@H]3CN[C@H](C(=O)N(C)C)C3)[C@H](C)[C@H]12 [MEROPENEM] = > 300 µM
• CC1(C)NC(=O)N(c2ccc([N+](=O)[O-])c(C(F)(F)F)c2)C1=O [NILUTAMIDE] = > 30 µM
